# credit: the supplement of paper PMC11780869

cleaved RNA product abundance values, listed per item
Tested on: Bacillus subtilis
MEASUREMENT_PROTOCOL: cleaved RNA product abundance (RNA/gDNA barcode ratio) relative to median wild-type variant (ratio to wild type); higher = more accumulation of the downstream cleavage product
ASSAY_CONDITIONS: experiment (reporter, strain, medium): exp 4a: truncated aprE reporter, strain BJT201 with 2% xylose (RNase J1 expressed); cleavage site: cggR-gapA (positions -7 to +36 mutated)

- SEQUENCE_CODE: "ACAGACGAAGGAGCCGCAAAGAAGTTATTAAGGGATGAATAATCCCTTAATATAAATATCTCTCACTTATTTAAA"
  cleaved RNA product abundance: 0.595
- SEQUENCE_CODE: "ACAGACGAAGGAGCCGCATAGAAGTTATTAAGGGATGAATAAGCCCTCAATATAAATATCTCTCACTTATTTAAA"
  cleaved RNA product abundance: 0.32
- SEQUENCE_CODE: "ACAGACGAAGGAGCCGCAAAGAAGTTCTTAAGGGATGAATAATCCCTCAATATAAATATCTCTCACTTATTTAAA"
  cleaved RNA product abundance: 0.254
- SEQUENCE_CODE: "ACAGACGAAGGAGCCGCAAAGAAGTTATTAAGGAATGTATAATCCCTCAATATAAATATCTCTCACTTATTTAAA"
  cleaved RNA product abundance: 0.169
- SEQUENCE_CODE: "ACAGACGAAGGAGCCGCAAAGAAGTTATTAAGGGATTGATAATCCCTCAATATAAATATCTCTCACTTATTTAAA"
  cleaved RNA product abundance: 0.889
- SEQUENCE_CODE: "ACAGACGAAGGAGCCGCAAATAAGTTATTAAGGGATGAATAATCCCTCAATGTAAATATCTCTCACTTATTTAAA"
  cleaved RNA product abundance: 0.178
- SEQUENCE_CODE: "ACAGACGAAGGAGCCGCAAATAAGTTATTAAGGGATGAATAATCACTCAATATAAATATCTCTCACTTATTTAAA"
  cleaved RNA product abundance: 0.107
- SEQUENCE_CODE: "ACAGACGAAGGAGCCGCAAAGAATTTATCAAGGGATGAATAATCCCTCAATATAAATATCTCTCACTTATTTAAA"
  cleaved RNA product abundance: 0.377
- SEQUENCE_CODE: "ACAGACGAAGGAGCCGCAAAGAAGTAATTAAGGGACGAATAATCCCTCAATATAAATATCTCTCACTTATTTAAA"
  cleaved RNA product abundance: 0.175
- SEQUENCE_CODE: "ACAGACGAAGGAGCCGCTAAGAAGTTATTAAGGGATGAATATTCCCTCAATATAAATATCTCTCACTTATTTAAA"
  cleaved RNA product abundance: 0.667
- SEQUENCE_CODE: "ACAGACGAAGGAGCCGCAAAGAAGTTATTAAGCGATGAATAAGCCCTCAATATAAATATCTCTCACTTATTTAAA"
  cleaved RNA product abundance: 0.108
- SEQUENCE_CODE: "ACAGACGAAGGAGCCGCAAAGAAGTTATTAAGGGATGAATTATCCCTCTATATAAATATCTCTCACTTATTTAAA"
  cleaved RNA product abundance: 0.3
- SEQUENCE_CODE: "ACAGACGAAGGAGCCGCAAAGAAGTTATTAAGCGATGAACAATCCCTCAATATAAATATCTCTCACTTATTTAAA"
  cleaved RNA product abundance: 0.133
- SEQUENCE_CODE: "ACAGACGAAGGAGCCGCAAAGAAGTTATTAAAGGATGAATAATCCCCTCAATATAAATATCTCTCACTTATTTAA"
  cleaved RNA product abundance: 0.159
- SEQUENCE_CODE: "ACAGACGAAGGAGCCGCAAAGAAGTTATTAAGGGGTGAATAATCCCTCAATATAAATACCTCTCACTTATTTAAA"
  cleaved RNA product abundance: 0.623
- SEQUENCE_CODE: "ACAGACGAAGGAGCCGCAAAGAAGTTATTAAGGGATGTATAATCCCTCATTATAAATATCTCTCACTTATTTAAA"
  cleaved RNA product abundance: 0.387
- SEQUENCE_CODE: "ACAGACGAAGGAGCCGCAAAGAAGTTATTAAGGGATGAATAATTCTTCAATATAAATATCTCTCACTTATTTAAA"
  cleaved RNA product abundance: 0.18
- SEQUENCE_CODE: "ACAGACGAAGGAGCCGCAAAGAAGTTATTAACGGATGAATAATCCCTTAATATAAATATCTCTCACTTATTTAAA"
  cleaved RNA product abundance: 0.671
- SEQUENCE_CODE: "ACAGACGAAGGAGCCGCAAAGAAGTTATTAATGGATGAATAATCCCTCAACATAAATATCTCTCACTTATTTAAA"
  cleaved RNA product abundance: 0.101
- SEQUENCE_CODE: "ACAGACGAAGGAGCCGCAAAGAAGTTAGTAAGGTATGAATAATCCCTCAATATAAATATCTCTCACTTATTTAAA"
  cleaved RNA product abundance: 0.135
- SEQUENCE_CODE: "ACAGACGAAGGAGCCGCAAAGAAGTTATTAAGGGATTAATAATCCCTCAATATAAATATCTCTCACTTATTTAAA"
  cleaved RNA product abundance: 0.958
- SEQUENCE_CODE: "ACAGACGAAGGAGCCGCAAAGAAGTGATTAAGGGATGAAAAATCCCTCAATATAAATATCTCTCACTTATTTAAA"
  cleaved RNA product abundance: 0.399
- SEQUENCE_CODE: "ACAGACGAAGGAGCCGCAAAGTAGTTATTAAGGCATGAATAATCCCTCAATATAAATATCTCTCACTTATTTAAA"
  cleaved RNA product abundance: 0.124
- SEQUENCE_CODE: "ACAGACGAAGGAGCCGCAAACAAGTTATTAACGGATGAATAATCCCTCAATATAAATATCTCTCACTTATTTAAA"
  cleaved RNA product abundance: 0.0915
- SEQUENCE_CODE: "ACAGACGAAGGAGCCGCAAAGAAGTTATTAAGGTATGAATAATCCCTCAATATAAACATCTCTCACTTATTTAAA"
  cleaved RNA product abundance: 0.124
- SEQUENCE_CODE: "ACAGACGAAGGAGCCGCAAAGAAGTTATTAAGGGATAAATAATCCCTCAACATAAATATCTCTCACTTATTTAAA"
  cleaved RNA product abundance: 0.251
- SEQUENCE_CODE: "ACAGACGAAGGAGCCGCAAAGAAGTTATTAAGGGATGAATAATCCCTCTATATATATATCTCTCACTTATTTAAA"
  cleaved RNA product abundance: 0.418
- SEQUENCE_CODE: "ACAGACGAAGGAGCCGCAAAGTAGTTATTAAGGAATGAATAATCCCTCAATATAAATATCTCTCACTTATTTAAA"
  cleaved RNA product abundance: 0.148
- SEQUENCE_CODE: "ACAGACGAAGGAGCCGCAAAGAAGTTATAAAGGGATGAATAATCCATCAATATAAATATCTCTCACTTATTTAAA"
  cleaved RNA product abundance: 0.26
- SEQUENCE_CODE: "ACAGACGAAGGAGCCGCAAAGAAGTTATTAAGGGATGAATAATCCCTCAATATATATAACTCTCACTTATTTAAA"
  cleaved RNA product abundance: 0.429
